Tested on: K-562 leukemia
EXPERIMENT NOTES: NCI-60 one-dose screen, 48 h
COND: 10 µM unless noted
About 83,000 compounds went through this panel and 20% of them were active in at least one assay; those are over-represented in the sample as a whole. The source made the active and inactive calls. Rule for the calls: active = growth percent below 10; inactive = the rest.
Outcomes: active, inactive

# COMPOUND, QUALITATIVE LABEL
data = [
    ("O=C(CSc1nc2ccccc2[nH]1)c1ccc(N2CCOCC2)cc1", "inactive"),
    ("N/C(=N\\C(N)=N\\c1nc2ccccc2s1)c1ccncc1", "inactive"),
    ("O=C(Nc1cccc(-n2cc(-c3ccncc3)c(-c3ccc(Cl)c(O)c3)n2)c1)Nc1cc(C(F)(F)F)cc(C(F)(F)F)c1", "active"),
    ("c1cc2[nH]ncc2cc1-c1nc2ccc3[nH]ncc3c2c2c1CCC2", "inactive"),
    ("COc1ccc(CCNC2=CC(=O)CCC2)cc1OC", "inactive"),
    ("CC(C)(C)c1[nH]nc2c1C(c1cc3ccccc3[nH]c1=O)Nc1cc(C(=O)Nc3ccc(Cl)cc3)ccc1N2 (stereo not given)", "inactive"),
    ("COC1=C(OC)C(=O)C(CCCCCCCCCC[P+](c2ccccc2)(c2ccccc2)c2ccccc2)=C(C)C1=O", "active"),
    ("Clc1cc2c(nn1)Nc1ccccc1S2", "inactive"),
    ("O=C(c1ccccc1)C1OC1c1ccc([N+](=O)[O-])cc1 (stereo not given)", "inactive"),
    ("CC1CN(c2oc(-c3ccccc3)nc2C#N)CC(C)O1 (stereo not given)", "inactive"),
]

###

Listed next: entries and their corresponding growth.
System: OVCAR-8 ovarian
EXPERIMENT NOTES: NCI-60 one-dose screen, 48 h (100 = growth as untreated, 0 = no growth, -100 = all killed)
COND: 10 µM unless noted
About 83,000 compounds went through this panel and 20% of them were active in at least one assay; those are over-represented in the sample as a whole. Active and inactive are the calls of the source. How the source made its calls: active means growth percent below 10; inactive means the rest.
PROPERTY NAME: growth

# COMPOUND STRUCTURE, PROPERTY NAME, ENDPOINT RESULT
data = [
    ("NC(=O)c1c(NC(=S)Nc2ccc(OC(F)(F)F)cc2)sc2c1CCC1(C2)OCCO1", "growth", "99.7% (inactive)"),
    ("O=C(c1ccccc1)c1c(/C=C/c2ccccc2)c2ccccc2[nH]c1=O", "growth", "90.9% (inactive)"),
    ("CC(C)(C)OC(=O)NCCc1ccc(N=C=S)cc1", "growth", "86% (inactive)"),
    ("COc1cc(/C=N\\NC(=O)CN2CCN(c3cc4c(cc3F)c(=O)c(C(=O)N/N=C/c3cc(OC)c(OC)c(OC)c3)cn4C3CC3)CC2)cc(OC)c1OC", "growth", "22.4% (inactive)"),
    ("Clc1cccc(-c2cc(-c3ccc4c(c3)OCCO4)[nH]n2)c1", "growth", "38.2% [25 µM] (inactive)"),
    ("O=[N+]([O-])c1cc(S(=O)(=O)Oc2ccccc2)ccc1Cl", "growth", "40.7% (inactive)"),
]

###

Listed next: entries and their corresponding growth.
System: HCT-15 colon
EXPERIMENT NOTES: NCI-60 one-dose screen, 48 h (100 = growth as untreated, 0 = no growth, -100 = all killed)
COND: 10 µM unless noted
This is part of a sample that, as a whole, favours compounds with a hit. Of some 83,000 tested, about 20% had one in any assay.

# MOLECULE, SYSTEM NAME, UNIT ABBREV, growth
records = [
    ("CCOC(=O)c1c(/N=C2\\SC(=O)/C(=C\\C(=O)OC)N2NC)sc2c1CCN(C(=O)OCC)C2", "HCT-15 colon", "%", 95.9),
    ("O=S(=O)(NCCCNc1nccc(-n2ccc3cccnc32)n1)c1cccc(C(F)(F)F)c1", "HCT-15 colon", "%", 103),
    ("COc1ccc(-c2c(N)n[nH]c2-c2cc3c(c(OC)c2OC)OCO3)cc1", "HCT-15 colon", "%", 101),
    ("CC(C)(C)n1cc(-c2ccnc(NCCCNS(=O)(=O)c3ccc(Br)cc3)c2)c(-c2cccc(O)c2)n1", "HCT-15 colon", "%", -47.3),
    ("O=C(Nc1cccc(-n2cc(-c3ccncc3)c(-c3ccc(Cl)c(O)c3)n2)c1)c1ccc(N2CCOCC2)c(C(F)(F)F)c1", "HCT-15 colon", "%", 26.2),
    ("NC1=NN(O)C2=CC([N+](=O)[O-])C=CC2=N1 (configuration not stated)", "HCT-15 colon", "%", 101),
    ("CN(C)CCN1C(=O)c2ccc3c4c(ccc(c24)C1=O)C(=O)N(CCN=C=S)C3=O", "HCT-15 colon", "%", -78.2),
    ("COc1ccc(/C=C2\\CN(Cc3cn(CCNc4ccnc5cc(Cl)ccc45)nn3)C/C(=C\\c3ccc(OC)c(OC)c3)C2=O)cc1OC", "HCT-15 colon", "%", 76),
    ("CCCCCCCCCCCC(=O)NCCC[N+](C)(C)CC(=O)[O-]", "HCT-15 colon", "%", 100),
    ("C=C1C(=O)O[C@@H]2[C@@H]3O[C@@](C)(CC/C=C(\\C)CCC[C@@H]2C)[C@H](O)C[C@@H]13", "HCT-15 colon", "%", 38.9),
    ("Cc1cc(N/N=C/c2nc(-c3ccc(Br)cc3)oc2C)c2cc(Br)ccc2n1", "HCT-15 colon", "%", 6.22),
    ("N#Cc1c(-c2ccccc2)cc(-c2ccccc2)n(CC(=O)NO)c1=O", "HCT-15 colon", "%", 16.8),
    ("COc1ccc(C2NN=C3c4ccccc4CCC32)cc1 (configuration not stated)", "HCT-15 colon", "%", 40),
    ("Cc1nn(-c2ccc([N+](=O)[O-])cc2)c2ncnc(NCCc3ccccc3)c12", "HCT-15 colon", "%", 95.4),
    ("CC[N+](CC)=c1cc2oc3cc(N(C)C)ccc3nc-2cc1C", "HCT-15 colon", "%", 47.4),
    ("Cc1cc(N/N=C/c2nc(-c3ccccc3)oc2C)c2cc(Br)ccc2n1", "HCT-15 colon", "%", 43.6),
    ("COc1ccc(C2CC(c3ccc(OC)cc3OC)=NN2c2ccc(S(N)(=O)=O)cc2)cc1 (configuration not stated)", "HCT-15 colon", "%", 75),
    ("CCCCCCCCCCCCCCCCNC(=O)OC(C)C", "HCT-15 colon", "%", 55.9),
    ("COc1cc(C(=O)/C=C/c2c(C)n([O-])c3ccc(C(F)(F)F)cc3[n+]2=O)cc(OC)c1OC", "HCT-15 colon", "%", 86.1),
    ("O=[N+]([O-])c1ccc(Sc2ncccn2)c([N+](=O)[O-])c1", "HCT-15 colon", "%", 38.9),
    ("O=c1c2sc3ncccc3c2nnn1-c1ccccc1", "HCT-15 colon", "%", 96),
    ("Cc1ccc(C(=O)C2=Cc3cc4ccccc4n3Cc3cnnn32)cc1", "HCT-15 colon", "%", 107),
    ("CCCCN(CCCC)c1ccc(C(=N)c2ccc(N(CCCC)CCCC)cc2)cc1", "HCT-15 colon", "%", -91.9),
    ("Cn1cnc2c(N3CCN(C(=O)OCc4ccc5c(Cl)cc(Cl)c(O)c5n4)CC3)nc(Cl)nc21", "HCT-15 colon", "%", 30.5),
    ("O=C(O)c1nc(-c2ccccc2)oc1N1CCOCC1", "HCT-15 colon", "%", 101),
    ("Cc1ccc(-c2cc3nc(-c4ccccc4)nc(C(Cl)Cl)n3n2)cc1", "HCT-15 colon", "%", -30.4),
    ("N[C@@H]1CCN(C(=O)c2cc3cc(Cl)c(F)c(F)c3[nH]2)C1", "HCT-15 colon", "%", 96.8),
    ("NC(N)=Nc1nc2ccccc2o1", "HCT-15 colon", "%", 105),
    ("CC(=O)c1cc2c(N)c(C(=O)Nc3cccc4c3OCCO4)sc2nc1C", "HCT-15 colon", "%", 97.3),
    ("CCOC(=O)CC(=O)OC", "HCT-15 colon", "%", 102),
    ("COP(=O)(OC)/C(=N\\NS(=O)(=O)c1ccc(C)cc1)c1ccccc1", "HCT-15 colon", "%", 112),
    ("O=[N+]([O-])c1ccc(/C=C/C2(CCl)OCCO2)cc1", "HCT-15 colon", "%", 109),
    ("N=C(N)c1ccc(-c2ccc(-c3ccc(-c4cccs4)s3)s2)cc1", "HCT-15 colon", "%", 101),
    ("Cc1cc(N/N=C/c2nc(-c3ccccc3)oc2C)c2cc(Cl)ccc2n1", "HCT-15 colon", "%", -83.3),
    ("COc1ccccc1CNCCCN1C(=O)c2ccc3c4c(ccc(c24)C1=O)C(=O)N(CCCNCCCCNCCCN)C3=O", "HCT-15 colon", "%", -32.1),
    ("C/C=C(\\C)C(C(=O)NC1CCCCC1)N(C(=O)C1CCc2cc(F)ccc2O1)c1ccc(Cl)cc1 (configuration not stated)", "HCT-15 colon", "%", 101),
    ("O=C(Nc1ccc2c(c1)OCCO2)C(=O)c1c[nH]c2ccccc12", "HCT-15 colon", "%", 33.5),
    ("C/C(=N/NC(=S)Nc1ccccc1)c1nc2ccc(Cl)cc2[nH]1", "HCT-15 colon", "%", 0.555),
    ("Fc1ccc(CNCCNc2ncnc3c2cnn3-c2ccccc2)cc1", "HCT-15 colon", "%", 92.4),
    ("COc1ccc(-c2nc(SCCC(C)C)nc(Nc3ccc(F)c(Cl)c3)c2C#N)cc1", "HCT-15 colon", "%", 84.9),
    ("COc1ccc(CCNC2=CC(=O)CCC2)cc1OC", "HCT-15 colon", "%", 108),
    ("Cn1ncc2c(Sc3ccc(Cl)cc3)ncnc21", "HCT-15 colon", "%", 97),
]
